Tested on: C. albicans
Details: in vitro
Bridge positions count the residues as written; N and C are the ends. Square brackets hold non-standard residues; d marks the D form. Peptide text beside a SMILES is read from it. * marks the point of attachment. ξ: configuration not given here. pTerphenylCO(4''-OnC5H11) = CCCCCOc1ccc(-c2ccc(-c3ccc(C(=O)*)cc3)cc2)cc1; Pro(3S-OH,4S-Me) = C[C@H]1CN[C@H](C(=O)O)[C@H]1O; hTyr(3R-OH) = N[C@H](C(=O)O)[C@H](O)Cc1ccc(O)cc1; Hyp = O=C(O)[C@@H]1C[C@@H](O)CN1; Thr(3ξ) = CC(O)[C@H](N)C(=O)O; Orn = NCCC[C@H](N)C(=O)O; Dap = NC[C@H](N)C(=O)O; ξDap = NCC(N)C(=O)O
Here, each record is paired with measured Minimal Inhibitory Concentration MIC C. albicans data.
Number in µg/mL, nothing else.

Would you please look over these solved cases?
- molecule: "CCCCCOc1ccc(-c2ccc(-c3ccc(C(=O)NC4CNC(=O)[C@@H]5[C@@H](O)[C@@H](C)CN5C(=O)[C@H](C(C)O)NC(=O)[C@H]([C@H](O)Cc5ccc(O)cc5)NC(=O)[C@@H]5C[C@@H](O)CN5C(=O)[C@H](C(C)O)NC4=O)cc3)cc2)cc1 (stereo partly drawn) [Compound E1-7] ({pTerphenylCO(4''-OnC5H11)}-[ξDap][Thr(3ξ)][Hyp][hTyr(3R-OH)][Thr(3ξ)][Pro(3S-OH,4S-Me)]; lactam 1-C)"
  target-entity: "C. albicans"
  value-units: "µg/mL"
  data-value: 0.312
- molecule: "CCCCCOc1ccc(-c2ccc(-c3ccc(C(=O)N[C@H]4CNC(=O)CNC(=O)[C@@H]5[C@@H](O)[C@@H](C)CN5C(=O)[C@H](C(C)O)NC(=O)[C@H]([C@H](O)Cc5ccc(O)cc5)NC(=O)[C@@H]5C[C@@H](O)CN5C(=O)[C@H](C(C)O)NC4=O)cc3)cc2)cc1 (stereo partly drawn) [E7-6(b)] ({pTerphenylCO(4''-OnC5H11)}-[Dap][Thr(3ξ)][Hyp][hTyr(3R-OH)][Thr(3ξ)][Pro(3S-OH,4S-Me)]G; lactam 1-C)"
  target-entity: "C. albicans"
  value-units: "µg/mL"
  data-value: 0.312

Okay, next one:
Q: Field request: Minimal Inhibitory Concentration MIC C. albicans | item: CCCCCOc1ccc(-c2ccc(-c3ccc(C(=O)N[C@H]4CCCNC(=O)[C@@H]5[C@@H](O)[C@@H](C)CN5C(=O)[C@H](C(C)O)NC(=O)[C@H]([C@H](O)Cc5ccc(O)cc5)NC(=O)[C@@H]5C[C@@H](O)CN5C(=O)[C@H](C(C)C)NC4=O)cc3)cc2)cc1 (stereo partly drawn) [Compound E4-6] ({pTerphenylCO(4''-OnC5H11)}-[Orn]V[Hyp][hTyr(3R-OH)][Thr(3ξ)][Pro(3S-OH,4S-Me)]; lactam 1-C)
Result: 1.25

* * *

Tested on: C. albicans
Settings: in vitro
Bridge positions count the residues as written; N and C are the ends. Square brackets hold non-standard residues; d marks the D form. Peptide text beside a SMILES is read from it. * marks the point of attachment. ξ: configuration not given here. pTerphenylCO(4''-OnC5H11) = CCCCCOc1ccc(-c2ccc(-c3ccc(C(=O)*)cc3)cc2)cc1; Pro(3S-OH,4S-Me) = C[C@H]1CN[C@H](C(=O)O)[C@H]1O; hTyr(3R-OH) = N[C@H](C(=O)O)[C@H](O)Cc1ccc(O)cc1; Hyp = O=C(O)[C@@H]1C[C@@H](O)CN1; Thr(3ξ) = CC(O)[C@H](N)C(=O)O; Orn = NCCC[C@H](N)C(=O)O
recorded-metric: Minimal Inhibitory Concentration MIC C. albicans (µg/mL)
Number in µg/mL, nothing else.

- molecule: "CCCCCOc1ccc(-c2ccc(-c3ccc(C(=O)NC4CS(=O)(=O)CCNC(=O)[C@@H]5[C@H](O)[C@@H](C)CN5C(=O)[C@H]([C@@H](C)O)NC(=O)[C@H]([C@H](O)Cc5ccc(O)cc5)NC(=O)[C@@H]5C[C@@H](O)CN5C(=O)[C@H]([C@@H](C)O)NC4=O)cc3)cc2)cc1 (some centres unmarked)"
  data-value: 10

Q: Request - read-out Minimal Inhibitory Concentration MIC C. albicans | tested on C. albicans | molecule CCCCCOc1ccc(-c2ccc(-c3ccc(C(=O)N[C@H]4CCCNC(=O)[C@@H]5[C@@H](O)[C@@H](C)CN5C(=O)[C@H](C(C)O)NC(=O)[C@H]([C@H](O)Cc5ccc(O)cc5)NC(=O)[C@@H]5C[C@@H](O)CN5C(=O)[C@H](C(C)O)NC4=O)cc3)cc2)cc1 (stereo partly drawn) [Compound E1-3] ({pTerphenylCO(4''-OnC5H11)}-[Orn][Thr(3ξ)][Hyp][hTyr(3R-OH)][Thr(3ξ)][Pro(3S-OH,4S-Me)]; lactam 1-C)
Result: 0.005

* * *

Test system: A. fumigatus
Conditions: in vitro
Bridge positions count the residues as written; N and C are the ends. Square brackets hold non-standard residues; d marks the D form. Peptide text beside a SMILES is read from it. * marks the point of attachment. ξ: configuration not given here. pTerphenylCO(4''-OnC5H11) = CCCCCOc1ccc(-c2ccc(-c3ccc(C(=O)*)cc3)cc2)cc1; Pro(3S-OH,4S-Me) = C[C@H]1CN[C@H](C(=O)O)[C@H]1O; hTyr(3R-OH) = N[C@H](C(=O)O)[C@H](O)Cc1ccc(O)cc1; Hyp = O=C(O)[C@@H]1C[C@@H](O)CN1; Thr(3ξ) = CC(O)[C@H](N)C(=O)O; dOrn = NCCC[C@@H](N)C(=O)O; Dab = NCC[C@H](N)C(=O)O; ξDap = NCC(N)C(=O)O
recorded-metric: Minimal Inhibitory Concentration MIC A. fumigatus (µg/mL)
Number in µg/mL, nothing else.

- molecule: "CCCCCOc1ccc(-c2ccc(-c3ccc(C(=O)NC4CNC(=O)[C@@H]5[C@@H](O)[C@@H](C)CN5C(=O)[C@H](C(C)O)NC(=O)[C@H]([C@H](O)Cc5ccc(O)cc5)NC(=O)[C@@H]5C[C@@H](O)CN5C(=O)[C@H](C(C)O)NC4=O)cc3)cc2)cc1 (stereo partly drawn) [Compound E1-7] ({pTerphenylCO(4''-OnC5H11)}-[ξDap][Thr(3ξ)][Hyp][hTyr(3R-OH)][Thr(3ξ)][Pro(3S-OH,4S-Me)]; lactam 1-C)"
  value-units: "µg/mL"
  data-value: 0.625

Q: Request - read-out Minimal Inhibitory Concentration MIC A. fumigatus | tested on A. fumigatus | molecule CCCCCOc1ccc(-c2ccc(-c3ccc(C(=O)NC4CS(=O)(=O)CCNC(=O)[C@@H]5[C@H](O)[C@@H](C)CN5C(=O)[C@H]([C@@H](C)O)NC(=O)[C@H]([C@H](O)Cc5ccc(O)cc5)NC(=O)[C@@H]5C[C@@H](O)CN5C(=O)[C@H]([C@@H](C)O)NC4=O)cc3)cc2)cc1 (stereo partly drawn)
Result: 20

Q: Request - read-out Minimal Inhibitory Concentration MIC A. fumigatus | tested on A. fumigatus | molecule CCCCCOc1ccc(-c2ccc(-c3ccc(C(=O)N[C@H]4CCNC(=O)[C@@H]5[C@@H](O)[C@@H](C)CN5C(=O)[C@H](C(C)O)NC(=O)[C@H]([C@H](O)Cc5ccc(O)cc5)NC(=O)[C@@H]5C[C@@H](O)CN5C(=O)[C@H](C(C)O)NC4=O)cc3)cc2)cc1 (stereo partly drawn) [Compound E1-6] ({pTerphenylCO(4''-OnC5H11)}-[Dab][Thr(3ξ)][Hyp][hTyr(3R-OH)][Thr(3ξ)][Pro(3S-OH,4S-Me)]; lactam 1-C)
Result: 20

Q: Request - read-out Minimal Inhibitory Concentration MIC A. fumigatus | tested on A. fumigatus | molecule CCCCCOc1ccc(-c2ccc(-c3ccc(C(=O)N[C@@H]4CCCNC(=O)[C@@H]5[C@@H](O)[C@@H](C)CN5C(=O)[C@H](C(C)O)NC(=O)[C@H]([C@H](O)Cc5ccc(O)cc5)NC(=O)[C@@H]5C[C@@H](O)CN5C(=O)[C@H](C(C)O)NC4=O)cc3)cc2)cc1 (stereo partly drawn) [Compound E1-4] ({pTerphenylCO(4''-OnC5H11)}-[dOrn][Thr(3ξ)][Hyp][hTyr(3R-OH)][Thr(3ξ)][Pro(3S-OH,4S-Me)]; lactam 1-C)
Result: 20.0

* * *

Here, each record is paired with measured Minimal Inhibitory Concentration MIC A. fumigatus data.
Test system: A. fumigatus
Conditions: in vitro
Where a name gives a salt, the structure may show the parent alone. Bridge positions count the residues as written; N and C are the ends. Square brackets hold non-standard residues; d marks the D form. Peptide text beside a SMILES is read from it. * marks the point of attachment. ξ: configuration not given here. pTerphenylCO(4''-OnC5H11) = CCCCCOc1ccc(-c2ccc(-c3ccc(C(=O)*)cc3)cc2)cc1; Pro(3S-OH,4S-Me) = C[C@H]1CN[C@H](C(=O)O)[C@H]1O; hTyr(3R-OH) = N[C@H](C(=O)O)[C@H](O)Cc1ccc(O)cc1; Hyp = O=C(O)[C@@H]1C[C@@H](O)CN1; Thr(3ξ) = CC(O)[C@H](N)C(=O)O; Orn = NCCC[C@H](N)C(=O)O; Dap = NC[C@H](N)C(=O)O
Number in µg/mL, nothing else.

Would you please look over these solved cases?
- compound: "CCCCCOc1ccc(-c2ccc(-c3ccc(C(=O)N[C@H]4CNC(=O)[C@H](CN)NC(=O)[C@@H]5[C@@H](O)[C@@H](C)CN5C(=O)[C@H](C(C)O)NC(=O)[C@H]([C@H](O)Cc5ccc(O)cc5)NC(=O)[C@@H]5C[C@@H](O)CN5C(=O)[C@H](C(C)O)NC4=O)cc3)cc2)cc1 (stereo partly drawn) [Compound E8-8] ({pTerphenylCO(4''-OnC5H11)}-[Dap][Thr(3ξ)][Hyp][hTyr(3R-OH)][Thr(3ξ)][Pro(3S-OH,4S-Me)][Dap]; lactam 1-C)"
  data-value: 5.0
- compound: "CCCCCOc1ccc(-c2ccc(-c3ccc(C(=O)N[C@H]4CCN(C)NC(=O)[C@@H]5[C@@H](O)[C@@H](C)CN5C(=O)[C@H](C(C)O)NC(=O)[C@H]([C@H](O)Cc5ccc(O)cc5)NC(=O)[C@@H]5C[C@@H](O)CN5C(=O)[C@H](C(C)O)NC4=O)cc3)cc2)cc1 (single isomer, unassigned) [E2-11(a) TFA salt]"
  data-value: 0.039
- compound: "CCCCCOc1ccc(-c2ccc(-c3ccc(C(=O)N[C@H]4CCN(CCC)NC(=O)[C@@H]5[C@@H](O)[C@@H](C)CN5C(=O)[C@H](C(C)O)NC(=O)[C@H]([C@H](O)Cc5ccc(O)cc5)NC(=O)[C@@H]5C[C@@H](O)CN5C(=O)[C@H](C(C)O)NC4=O)cc3)cc2)cc1 (some centres unmarked) [E2-11(c)]"
  data-value: 0.156

Q: Field request: Minimal Inhibitory Concentration MIC A. fumigatus | item: CCCCCOc1ccc(-c2ccc(-c3ccc(C(=O)N[C@H]4CCCNC(=O)[C@@H]5[C@@H](O)[C@@H](C)CN5C(=O)[C@H](C(C)O)NC(=O)[C@H]([C@H](O)Cc5ccc(O)cc5)NC(=O)[C@@H]5C[C@@H](O)CN5C(=O)[C@H](C(C)O)NC4=O)cc3)cc2)cc1 (stereo partly drawn) [Compound E1-3] ({pTerphenylCO(4''-OnC5H11)}-[Orn][Thr(3ξ)][Hyp][hTyr(3R-OH)][Thr(3ξ)][Pro(3S-OH,4S-Me)]; lactam 1-C)
Result: 0.078

Q: Field request: Minimal Inhibitory Concentration MIC A. fumigatus | item: CCCCCOc1ccc(-c2ccc(-c3ccc(C(=O)N[C@H]4CNC(=O)CNC(=O)[C@@H]5[C@@H](O)[C@@H](C)CN5C(=O)[C@H](C(C)O)NC(=O)[C@H]([C@H](O)Cc5ccc(O)cc5)NC(=O)[C@@H]5C[C@@H](O)CN5C(=O)[C@H](C(C)O)NC4=O)cc3)cc2)cc1 (stereo partly drawn) [E7-6(b)] ({pTerphenylCO(4''-OnC5H11)}-[Dap][Thr(3ξ)][Hyp][hTyr(3R-OH)][Thr(3ξ)][Pro(3S-OH,4S-Me)]G; lactam 1-C)
Result: 5.0

Q: Field request: Minimal Inhibitory Concentration MIC A. fumigatus | item: CCCCCOc1ccc(-c2ccc(-c3ccc(C(=O)N[C@H]4CCN(C)NC(=O)[C@@H]5[C@@H](O)[C@@H](C)CN5C(=O)[C@H](C(C)O)NC(=O)[C@H]([C@H](O)Cc5ccc(O)cc5)NC(=O)[C@@H]5C[C@@H](O)CN5C(=O)[C@H](C(C)O)NC4=O)cc3)cc2)cc1 (single isomer, unassigned) [E2-11(a) HCl salt]
Result: 0.078

Q: Field request: Minimal Inhibitory Concentration MIC A. fumigatus | item: CCCCCOc1ccc(-c2ccc(-c3ccc(C(=O)N[C@H]4CCNNC(=O)[C@@H]5[C@@H](O)[C@@H](C)CN5C(=O)[C@H](C(C)O)NC(=O)[C@H]([C@H](O)Cc5ccc(O)cc5)NC(=O)[C@@H]5C[C@@H](O)CN5C(=O)[C@H](C(C)O)NC4=O)cc3)cc2)cc1 (some centres unmarked) [E2-10(b)]
Result: 0.156

// provenance: patent US6939946B2
